Field: inhibition at 13 µM. Provide a value for each of the compounds that follow.
- System Tested: S. pneumoniae Topoisomerase IV ATPase (ParE) (Streptococcus pneumoniae serotype 4, UniProt Q59961)
- Sequence (Q59961 whole entry): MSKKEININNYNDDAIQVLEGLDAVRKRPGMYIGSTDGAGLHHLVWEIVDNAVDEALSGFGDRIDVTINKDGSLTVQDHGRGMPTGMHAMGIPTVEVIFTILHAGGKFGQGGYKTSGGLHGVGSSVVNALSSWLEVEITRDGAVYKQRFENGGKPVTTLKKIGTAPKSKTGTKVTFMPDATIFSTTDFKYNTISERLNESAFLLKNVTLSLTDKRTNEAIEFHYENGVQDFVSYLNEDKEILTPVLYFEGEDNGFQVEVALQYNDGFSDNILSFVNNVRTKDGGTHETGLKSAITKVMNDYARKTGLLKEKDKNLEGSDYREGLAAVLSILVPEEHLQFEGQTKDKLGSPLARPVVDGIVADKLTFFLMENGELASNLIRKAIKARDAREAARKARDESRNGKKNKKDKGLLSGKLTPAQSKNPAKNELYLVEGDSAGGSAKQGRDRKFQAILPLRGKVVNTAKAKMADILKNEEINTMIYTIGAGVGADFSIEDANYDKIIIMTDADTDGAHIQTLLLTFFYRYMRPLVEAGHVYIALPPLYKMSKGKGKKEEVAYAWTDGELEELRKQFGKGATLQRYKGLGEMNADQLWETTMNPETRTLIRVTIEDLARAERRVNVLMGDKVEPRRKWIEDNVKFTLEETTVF
- Test Details: S. pneumoniae Topoisomerase IV ATPase inhibition
- Format: biochemical
- Conditions: values marked * are an average of two or more data points, read-out: % Inh (13 μM) of S. pneumoniae Topoisomerase IV ATPase
Provide only the numeric value, understood in %.

Form field inhibition at 13 µM, entry `CN(C)CCCNc1nc(Nc2ccc(F)c(Cl)c2)ncc1-c1ccc(C(=O)O)cc1` : 96.3

Form field inhibition at 13 µM, entry `CCOC(=O)/C=C/c1cccc(-c2cnc(Nc3ccc(F)c(Cl)c3)nc2N2CCCCC2)c1` : 3.62

Form field inhibition at 13 µM, entry `CN(C)CCCNc1nc(Nc2ccc(F)c(Cl)c2)ncc1-c1cccc(C(=O)NCc2ccccc2)c1` : 107

Form field inhibition at 13 µM, entry `CC(C)(C)OC(=O)NCCNc1nc(Nc2ccc(F)c(Cl)c2)ncc1-c1cncnc1` : 72.7

Form field inhibition at 13 µM, entry `Cc1cc(C(F)(F)F)nn1-c1nc(Nc2cc(F)cc(F)c2)ncc1-c1cccc(/C=C/C(=O)O)c1` : 96

Form field inhibition at 13 µM, entry `O=C(O)c1cncc(-c2cnc(Nc3ccc(F)c(Cl)c3)nc2-n2cccc2)c1` : 81.8

Form field inhibition at 13 µM, entry `CN(C)CCCNc1nc(Nc2cc(Cl)cc(Cl)c2)ncc1-c1ccc(C(=O)O)s1` : 84.3

Form field inhibition at 13 µM, entry `Fc1ccc(Nc2ncc(-c3cncnc3)c(-n3ccc(C(F)(F)F)n3)n2)cc1Cl` : 66.7

Form field inhibition at 13 µM, entry `NC(=O)c1cncc(-c2cnc(Nc3ccc(F)c(Cl)c3)nc2-n2nc(C(F)F)cc2C(F)F)c1` : 100

Form field inhibition at 13 µM, entry `CN(CC(=O)O)c1cccc(-c2cnc(Nc3ccc(F)c(Cl)c3)nc2-n2ccc(C(F)(F)F)n2)c1` : 82

Form field inhibition at 13 µM, entry `O=C(O)/C=C/c1cccc(-c2cnc(Nc3cc(F)cc(F)c3)nc2N2CCOCC2)c1` : 81

Form field inhibition at 13 µM, entry `COc1cc(Cl)c(C)cc1Nc1ncc(-c2ccc(C(=O)O)s2)c(NCCCN(C)C)n1` : 77

Form field inhibition at 13 µM, entry `O=C(O)c1cncc(-c2cnc(Nc3ccc(F)c(Cl)c3)nc2NCCc2c[nH]cn2)c1` : 83.8

Form field inhibition at 13 µM, entry `COCCCNc1nc(Nc2ccc(F)c(Cl)c2)ncc1-c1cnc(OC)nc1` : 80.9

Form field inhibition at 13 µM, entry `Cc1cc(C)cc(Nc2ncc(-c3cncc(C(=O)O)c3)c(-n3nc(C(F)(F)F)cc3C)n2)c1` : 100

Form field inhibition at 13 µM, entry CCOC(=O)c1cncc(-c2cnc(Nc3ccc(F)c(Cl)c3)nc2N2CCC(O)C2)c1 (stereo not drawn) : 66.4

Form field inhibition at 13 µM, entry `Fc1ccc(Nc2ncc(-c3cncnc3)c(N3CCOCC3)n2)cc1F` : 26.7

Form field inhibition at 13 µM, entry `O=C(O)c1cc2ccc(-c3cnc(Nc4ccc(F)c(Cl)c4)nc3N3CCOCC3)cc2[nH]1` : 94

====

- System Tested: S. pneumoniae Topoisomerase IV ATPase (ParE) (Streptococcus pneumoniae serotype 4, UniProt Q59961)
- Test Details: S. pneumoniae Topoisomerase IV ATPase inhibition
- Type: biochemical
- Conditions: values marked * are an average of two or more data points, read-out: % Inh (13 μM) of S. pneumoniae Topoisomerase IV ATPase
Rule: inhibition at 13 µM of 90% or more gives Met; anything lower gives Not met.

Hi team, for N#Cc1cc(Nc2ncc(-c3cncc(C(=O)O)c3)c(N3CCOCC3)n2)ccc1F [Example 440] , is the recorded inhibition at 13 µM at or above 90%?
Not met

Hi team, for COc1ncc(-c2cnc(Nc3cccc(C(N)=O)c3)nc2-n2nc(C(F)(F)F)cc2C)cc1C(=O)O [Example 723] , is the recorded inhibition at 13 µM at or above 90%?
Met

Hi team, for CN(C)CCCNc1nc(Nc2ccc(F)c(Cl)c2)ncc1-c1ccc(/C=C/C(=O)O)cc1 [Example 24] , is the recorded inhibition at 13 µM at or above 90%?
Met

Hi team, for NC(=O)c1cncc(-c2cnc(Nc3ccc(F)c(Cl)c3)nc2NCCc2c[nH]cn2)c1 [Example 472] , is the recorded inhibition at 13 µM at or above 90%?
Met

Hi team, for Fc1ccc(Nc2ncc(-c3cncnc3)c(N3CCC(F)CC3)n2)cc1Cl [Example 64] , is the recorded inhibition at 13 µM at or above 90%?
Not met

Hi team, for CCOC(=O)c1cncc(-c2cnc(Nc3ccc(F)c(Cl)c3)nc2NCC2CCCO2)c1 (stereo not drawn) [Example 108] , is the recorded inhibition at 13 µM at or above 90%?
Not met

Hi team, for COc1cc(Nc2ncc(-c3cnc(OC)c(C(=O)NS(=O)(=O)CCCN4CCOCC4)c3)c(-n3ccc(C(F)(F)F)n3)n2)cc(OC)c1 [Example 820] , is the recorded inhibition at 13 µM at or above 90%?
Met

Hi team, for CONC(=O)c1cncc(-c2cnc(Nc3ccc(F)c(Cl)c3)nc2-n2nc(C(F)F)cc2C)c1 [Example 546] , is the recorded inhibition at 13 µM at or above 90%?
Met

Hi team, for CONC(=O)c1cc(-c2cnc(Nc3cc(OC)cc(OC)c3)nc2-n2ccc(C(F)(F)F)n2)cnc1OC [Example 811] , is the recorded inhibition at 13 µM at or above 90%?
Met

Hi team, for COc1cc(Nc2ncc(-c3cc(C(=O)O)c(=O)n(CCS(C)(=O)=O)c3)c(-n3nc(C(F)(F)F)cc3C)n2)cc(OC)c1 [Example 1097] , is the recorded inhibition at 13 µM at or above 90%?
Met
